Target: JAK1 (Homo sapiens (Human), UniProt P23458)
Sequence (P23458 whole entry): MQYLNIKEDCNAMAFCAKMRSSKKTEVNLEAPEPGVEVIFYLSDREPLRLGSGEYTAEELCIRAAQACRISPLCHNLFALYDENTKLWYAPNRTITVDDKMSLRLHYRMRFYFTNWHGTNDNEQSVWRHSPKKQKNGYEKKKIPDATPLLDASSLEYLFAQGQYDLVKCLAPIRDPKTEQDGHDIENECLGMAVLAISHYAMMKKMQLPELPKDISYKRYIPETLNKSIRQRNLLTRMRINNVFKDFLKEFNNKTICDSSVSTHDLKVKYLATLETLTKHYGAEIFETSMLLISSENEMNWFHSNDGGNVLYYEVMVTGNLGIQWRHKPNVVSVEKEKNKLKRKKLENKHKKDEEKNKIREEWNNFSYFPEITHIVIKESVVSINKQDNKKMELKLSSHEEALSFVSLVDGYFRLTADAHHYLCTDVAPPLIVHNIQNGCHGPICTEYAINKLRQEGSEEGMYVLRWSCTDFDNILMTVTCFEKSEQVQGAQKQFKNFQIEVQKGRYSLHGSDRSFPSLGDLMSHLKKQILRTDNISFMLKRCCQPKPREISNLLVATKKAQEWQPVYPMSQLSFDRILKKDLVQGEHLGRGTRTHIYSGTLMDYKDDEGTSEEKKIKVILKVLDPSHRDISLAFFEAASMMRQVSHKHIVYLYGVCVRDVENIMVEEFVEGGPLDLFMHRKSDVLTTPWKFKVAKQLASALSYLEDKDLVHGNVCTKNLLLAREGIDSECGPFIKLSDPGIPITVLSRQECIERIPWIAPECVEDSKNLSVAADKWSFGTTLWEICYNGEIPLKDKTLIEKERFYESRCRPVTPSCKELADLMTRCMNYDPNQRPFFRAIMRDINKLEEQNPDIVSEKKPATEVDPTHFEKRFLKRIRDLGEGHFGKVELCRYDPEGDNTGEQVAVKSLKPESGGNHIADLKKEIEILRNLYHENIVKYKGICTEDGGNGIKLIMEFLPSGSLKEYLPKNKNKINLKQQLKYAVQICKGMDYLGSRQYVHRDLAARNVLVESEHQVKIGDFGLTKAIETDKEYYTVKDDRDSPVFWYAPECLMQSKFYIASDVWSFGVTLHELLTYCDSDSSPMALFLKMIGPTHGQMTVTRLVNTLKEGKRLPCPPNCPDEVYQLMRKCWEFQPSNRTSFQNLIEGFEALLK
Assay: Analysis of JAK1 activity inhibition ability (ADP-Glo Kinase Assay)
Type: biochemical
Conditions: JAK1 enzyme, ADP-Glo luminescence, ATP 250 uM, IRS-itide substrate, 30° C. 40 minutes; read-out: IC50
Procedure: Test Example 1: Analysis of JAK1 Activity Inhibition Ability of Compound of Formula 1 (ADP-Glo™ Kinase Assay) A JAK inhibition ability of a compound according to the present invention was identified as follows. A control material and a test material were prepared for each concentration, in such a way that they were diluted by means of DMSO. […]
Assign IC50 to each entry below.

Q) Please give the measured IC50 for this molecule: Cc1cc(C(=O)N2CC=C(c3cc(NC(=O)C4CC4)nc4[nH]ccc34)C(C)C2)cc(Cl)n1 (stereo not drawn)
A) 20 to 200 nM

Q) Proceed to O=C(Nc1cc(-c2ccc(NS(=O)(=O)c3ccc(Cl)c(C(F)(F)F)c3)cc2)c2cc[nH]c2n1)C1CC1
A) 20 to 200 nM

Q) Proceed to N#CCC(=O)N1CCC(c2cc(NC(=O)C3CC3)nc3[nH]ccc23)CC1
A) 20 to 200 nM

Q) Proceed to O=C(Nc1cc(-c2ccc(NC3CN(C(=O)c4cc(F)cc(F)c4)C3)cc2)c2cc[nH]c2n1)C1CC1
A) > 200 nM

Q) Proceed to CCCCNC(=O)N1C2C=C(c3cc(NC(=O)C4CC4)nc4[nH]ccc34)CC1CC2 (stereo not drawn)
A) 20 to 200 nM

Q) Proceed to O=C(Nc1cc(-c2ccc(NC3CCN(C(=O)NCC(F)(F)F)CC3)cc2)c2cc[nH]c2n1)C1CC1
A) 20 to 200 nM

Q) Proceed to O=C(Nc1cc(-c2ccc(NC3CCN(C(=O)Nc4ccc(F)cc4F)CC3)c(F)c2)c2cc[nH]c2n1)C1CC1
A) 20 to 200 nM

Q) Proceed to CCS(=O)(=O)N1C2CCC1CC(c1cc(NC(=O)C3CC3)nc3[nH]ccc13)C2 (stereo not drawn)
A) > 200 nM

Q) Proceed to CS(=O)(=O)N1CCN(c2cc(NC(=O)C3CC3)nc3[nH]ccc23)CC1
A) > 200 nM

Q) Proceed to N#CCNC(=O)c1c(F)cc(-c2cc(NC(=O)C3CC3)nc3[nH]ccc23)cc1F
A) 20 to 200 nM

Q) Proceed to N#CCC1(N2CC=C(c3cc(NC(=O)C4CC4)nc4[nH]ccc34)CC2)CN(S(=O)(=O)C(F)(F)F)C1
A) < 20 nM

Q) Proceed to O=C(Nc1cc(-c2ccc(NC3CCN(C(=O)CC(F)(F)F)CC3)cc2)c2cc[nH]c2n1)C1CC1
A) > 200 nM

Q) Proceed to C[C@@H]1CN(C(=O)c2cccc(Br)c2)CC=C1c1cc(NC(=O)C2CC2)nc2[nH]ccc12
A) < 20 nM

Q) Proceed to O=C(Nc1cc(C2=CCN(CC(=O)N3CCS(=O)(=O)CC3)CC2)c2cc[nH]c2n1)C1CC1
A) 20 to 200 nM

Q) Proceed to N#CCC(=O)N1C[C@H]2C[C@@H]1CN2c1cc(NC(=O)C2CC2)nc2[nH]ccc12
A) > 200 nM

* * *

Assign IC50 to each entry below.
Target: JAK1 (Homo sapiens (Human))
Assay: Analysis of JAK1 activity inhibition ability (ADP-Glo Kinase Assay)
Format: biochemical
Settings: JAK1 enzyme, ADP-Glo luminescence, ATP 250 uM, IRS-itide substrate, 30° C. 40 minutes; read-out: IC50

Q) State its IC50 on JAK1 (Homo sapiens (Human)): CCS(=O)(=O)Nc1ccc(-c2cc(NC(=O)C3CC3)nc3[nH]ccc23)c(C)c1
A) < 20 nM

Q) Proceed to CCS(=O)(=O)Nc1ccc(-c2nc(Nc3ccccc3)nc3[nH]ccc23)cc1F
A) 20 to 200 nM

Q) Proceed to Cc1cc(CC(=O)N2CCS(=O)(=O)CC2)ccc1-c1cc(NC(=O)C2CC2)nc2[nH]ccc12
A) 20 to 200 nM

Q) Proceed to O=C(Nc1cc(C2=CCC(NS(=O)(=O)C3CCC3)CC2)c2cc[nH]c2n1)C1CC1 (centres unmarked)
A) < 20 nM

Q) Proceed to C[C@@H]1CN(C(=O)C(=Cc2ccccc2)CC#N)CC=C1c1cc(NC(=O)C2CC2)nc2[nH]ccc12
A) 20 to 200 nM

Q) Proceed to O=C(Nc1cc(-c2ccc(NS(=O)(=O)c3ccccc3)cc2)c2cc[nH]c2n1)C1CC1
A) < 20 nM

Q) Proceed to CCc1cc(NS(=O)(=O)C2CCC2)ccc1-c1cc(NC(=O)C2CC2)nc2[nH]ccc12
A) < 20 nM

Q) Proceed to O=C(Nc1cc(C2=CCN(C(=O)CCl)CC2)c2cc[nH]c2n1)C1CC1
A) 20 to 200 nM

Q) Proceed to CC(Br)CC(=O)N1CC=C(c2cc(NC(=O)C3CC3)nc3[nH]ccc23)C(C)C1 (centres unmarked)
A) 20 to 200 nM

Q) Proceed to O=C(Nc1cc(C2=CCN(C(=O)c3ccncc3)CC2)c2cc[nH]c2n1)C1CC1
A) > 200 nM

Q) Proceed to O=C(Nc1cc(-c2ccc(NS(=O)(=O)N3CCS(=O)(=O)CC3)cc2)c2cc[nH]c2n1)C1CC1
A) < 20 nM

Q) Proceed to Cn1cc(S(=O)(=O)Nc2ccc(-c3nc(NC(=O)C4CC4)nc4[nH]ccc34)cc2)cn1
A) > 200 nM

Q) Proceed to O=C(Nc1cc(C2=CCC(NC3CCN(C(=O)C4CCCCC4)CC3)CC2)c2cc[nH]c2n1)C1CC1 (centres unmarked)
A) > 200 nM

Q) Proceed to CCCS(=O)(=O)N[C@H]1CCN(c2nc(NC(=O)C3CC3)nc3[nH]ccc23)C1
A) > 200 nM

Q) Proceed to CS(=O)(=O)N1CCN(C(=O)Cc2ccc(-c3cc(NC(=O)C4CC4)nc4[nH]ccc34)cc2)CC1
A) < 20 nM

Q) Proceed to CC1CN(C(=O)c2ccnc(Br)c2)CC=C1c1cc(NC(=O)C2CC2)nc2[nH]ccc12 (centres unmarked)
A) 20 to 200 nM

Q) Proceed to CS(=O)(=O)Nc1ccc(-c2cc(NC(=O)C3CC3)nc3[nH]ccc23)cc1-c1ccccc1
A) > 200 nM

Q) Proceed to CC(C)(C)OC(=O)N1C2CCC1CN(c1cc(NC(=O)C3CC3)nc3[nH]ccc13)C2
A) 20 to 200 nM

Q) Proceed to CCS(=O)(=O)Nc1ccc(-c2cc(NC(=O)C3CC3)nc3[nH]ccc23)c(F)c1
A) < 20 nM

Q) Proceed to O=C(Nc1cc(-c2ccc(NS(=O)(=O)c3ccc(Br)c(F)c3)cc2)c2cc[nH]c2n1)C1CC1
A) 20 to 200 nM

Q) Proceed to CCS(=O)(=O)N1CC(CC#N)(N2C3CCC2CN(c2cc(NC(=O)C4CC4)nc4[nH]ccc24)C3)C1
A) > 200 nM

Q) Proceed to N#CC1(CS(=O)(=O)Nc2cc(F)c(-c3cc(NC(=O)C4CC4)nc4[nH]ccc34)cc2F)CC1
A) < 20 nM

Q) Proceed to O=C(Nc1nc(-c2ccc(NCCCO)cc2)c2cc[nH]c2n1)C1CC1
A) > 200 nM

Q) Proceed to CCCC(=O)Nc1cc(-c2ccc(NS(=O)(=O)CC)c(F)c2)c2cc[nH]c2n1
A) > 200 nM

Q) Proceed to O=C(Nc1cc(C2=CCN(C(=O)c3cscn3)CC2)c2cc[nH]c2n1)C1CC1
A) > 200 nM

Q) Proceed to C[C@@H]1CN(C(=O)c2cccn(C)c2=O)CC=C1c1cc(NC(=O)C2CC2)nc2[nH]ccc12
A) > 200 nM

Q) Proceed to CC1(C)CN(S(=O)(=O)CCCC#N)CC=C1c1cc(NC(=O)C2CC2)nc2[nH]ccc12
A) 20 to 200 nM

Q) Proceed to CCS(=O)(=O)Nc1ccc(-c2cc(NC(=O)C3CC3)nc3[nH]ccc23)cc1
A) < 20 nM

Q) Proceed to N#CCCN1CC=C(c2cc(NC(=O)C3CC3)nc3[nH]ccc23)C1
A) 20 to 200 nM

Q) Proceed to O=C(Nc1ccc(-c2nc(NC(=O)C3CC3)nc3[nH]ccc23)cc1)Nc1ccc(F)c(F)c1
A) 20 to 200 nM

Q) Proceed to CCS(=O)(=O)Nc1ccc(-c2nc(Nc3ccccc3)nc3[nH]ccc23)cc1
A) 20 to 200 nM

Q) Proceed to N#CCOC(=O)N1CC=C(c2cc(NC(=O)C3CC3)nc3[nH]ccc23)CC1
A) < 20 nM

* * *

Target: JAK1 (Homo sapiens (Human), UniProt P23458)
Assay: Analysis of JAK1 activity inhibition ability (ADP-Glo Kinase Assay)
Format: biochemical
Details: JAK1 enzyme, ADP-Glo luminescence, ATP 250 uM, IRS-itide substrate, 30° C. 40 minutes; read-out: IC50
Method: Test Example 1: Analysis of JAK1 Activity Inhibition Ability of Compound of Formula 1 (ADP-Glo™ Kinase Assay) A JAK inhibition ability of a compound according to the present invention was identified as follows. A control material and a test material were prepared for each concentration, in such a way that they were diluted by means of DMSO. […]
Assign IC50 to each entry below.

Q) Please give the measured IC50 for this compound: O=C(Nc1cc(-c2cc(F)c(CN3CCOCC3)c(F)c2)c2cc[nH]c2n1)C1CC1
A) < 20 nM

Q) Proceed to COc1cccc(C(=O)N2CC=C(c3cc(NC(=O)C4CC4)nc4[nH]ccc34)C(C)C2)c1 (stereo not shown)
A) 20 to 200 nM

Q) Proceed to O=C(Nc1cc(C2=CCN(C(=O)C3CC3(F)F)CC2)c2cc[nH]c2n1)C1CC1 (stereo not shown)
A) < 20 nM

Q) Proceed to CC(=O)c1cccc(C(=O)N2CC=C(c3cc(NC(=O)C4CC4)nc4[nH]ccc34)C(C)C2)c1 (stereo not shown)
A) > 200 nM

Q) Proceed to CC(C)(C)CS(=O)(=O)Nc1ccc(-c2cc(NC(=O)C3CC3)nc3[nH]ccc23)cc1
A) < 20 nM

Q) Proceed to N#CC1(CC(=O)N2CCN(c3cc(NC(=O)C4CC4)nc4[nH]ccc34)CC2)CC1
A) 20 to 200 nM

Q) Proceed to N#CCCC(=O)N1C[C@@H]2C[C@H]1CN2c1cc(NC(=O)C2CC2)nc2[nH]ccc12
A) > 200 nM

Q) Proceed to CCS(=O)(=O)Nc1cc(F)c(-c2cc(NC(=O)C3CC3)nc3[nH]ccc23)cc1F
A) < 20 nM

Q) Proceed to O=C(Nc1cc(-c2ccc(NS(=O)(=O)c3ccc(Br)cc3F)cc2)c2cc[nH]c2n1)C1CC1
A) 20 to 200 nM

Q) Proceed to N#CCC(=O)N1CC=C(c2cc(NC(=O)C3CC3)nc3[nH]ccc23)C1
A) > 200 nM

Q) Proceed to O=C(Nc1nc(-c2ccc(NS(=O)(=O)CCC(F)(F)F)cc2)c2cc[nH]c2n1)C1CC1
A) < 20 nM

Q) Proceed to CCCCNC(=O)Nc1ccc(-c2nc(NC(=O)C3CC3)nc3[nH]ccc23)cc1
A) 20 to 200 nM

Q) Proceed to N#CCCCn1ccc2c(-c3ccc(OS(=O)(=O)CCCC#N)cc3)cc(NC(=O)C3CC3)nc21
A) > 200 nM

The reported numbers originate from patent US11524968B2.
